- system.under.test: UniProtKB P30530
- protocol.text: Axl binding assay
Counter-ions that a name gives are not always drawn.
Below: a set of entries, each annotated with reported IC50.

Worked examples follow.
{"columns": ["compound", "IC50"],
 "data": [
  ["COc1cc2nccc(Oc3ccc(NC(=O)c4nn(-c5ccc(F)cc5)cc4OCCCN(C)C)cc3F)c2cc1OC", "500 to 5000 nM"],
  ["CCOc1cn(-c2ccc(OC)cc2C)nc1C(=O)Nc1ccc(Oc2ccnc3cc(OC)c(OC)cc23)cn1", "< 500 nM"],
  ["CCOc1cn(-c2ccc(F)cc2Cl)nc1C(=O)Nc1ccc(Oc2ccnc3cc(OC)c(OC)cc23)c(F)c1", "< 500 nM"],
  ["COc1cc2c(Oc3ccc(NC(=O)c4nn(-c5ccc(F)cc5)cc4OCC4CC4)cc3F)ccnc2cc1OCCCN1CCNCC1 [Example 64, trifluoroacetic acid salt]", "< 500 nM"],
  ["COc1cc2c(Oc3ccc(NC(=O)c4nn(-c5ccc(F)cc5)cc4OCC4CC4)cc3F)ccnc2cc1OCC1CCNCC1", "< 500 nM"],
  ["COc1cc2nccc(Oc3ccc(NC(=O)c4nn(-c5ccc(F)cc5)cc4CCN(C)C)cc3F)c2cc1OC", "< 500 nM"]
]}

Give UniProtKB P30530 IC50 for CCOc1cn(-c2ccc(F)cc2O)nc1C(=O)Nc1ccc(Oc2ccnc3cc(OC)c(OC)cc23)cn1
< 500 nM

GET /values?readout=IC50&system=UniProtKB P30530&item= CCOc1cn(-c2ccc(F)cc2C)nc1C(=O)Nc1ccc(Oc2ccnc3cc(OCCCN4CCOCC4)c(OC)cc23)c(F)c1
< 500 nM

For UniProtKB P30530, provide IC50 of COc1cc2nccc(Oc3ccc(N)cc3F)c2cc1OC please.
> 10000 nM

// map CCOc1cn(-c2ccc(F)cc2)nc1C(=O)Nc1ccc(Oc2ccnc3cc(OCCCN4CCN(C)CC4)c(OC)cc23)c(F)c1 to recorded IC50 (system: UniProtKB P30530)
< 500 nM

Recall the recorded IC50 for COc1cc2nccc(Oc3ccc(NC(=O)c4nn(-c5ccc(F)cc5)cc4CCN(C)C)nc3)c2cc1OC with UniProtKB P30530 and state it.
500 to 5000 nM

----------
- system.under.test: Axl (Homo sapiens (Human), UniProt P30530)
- Sequence (P30530 26-894): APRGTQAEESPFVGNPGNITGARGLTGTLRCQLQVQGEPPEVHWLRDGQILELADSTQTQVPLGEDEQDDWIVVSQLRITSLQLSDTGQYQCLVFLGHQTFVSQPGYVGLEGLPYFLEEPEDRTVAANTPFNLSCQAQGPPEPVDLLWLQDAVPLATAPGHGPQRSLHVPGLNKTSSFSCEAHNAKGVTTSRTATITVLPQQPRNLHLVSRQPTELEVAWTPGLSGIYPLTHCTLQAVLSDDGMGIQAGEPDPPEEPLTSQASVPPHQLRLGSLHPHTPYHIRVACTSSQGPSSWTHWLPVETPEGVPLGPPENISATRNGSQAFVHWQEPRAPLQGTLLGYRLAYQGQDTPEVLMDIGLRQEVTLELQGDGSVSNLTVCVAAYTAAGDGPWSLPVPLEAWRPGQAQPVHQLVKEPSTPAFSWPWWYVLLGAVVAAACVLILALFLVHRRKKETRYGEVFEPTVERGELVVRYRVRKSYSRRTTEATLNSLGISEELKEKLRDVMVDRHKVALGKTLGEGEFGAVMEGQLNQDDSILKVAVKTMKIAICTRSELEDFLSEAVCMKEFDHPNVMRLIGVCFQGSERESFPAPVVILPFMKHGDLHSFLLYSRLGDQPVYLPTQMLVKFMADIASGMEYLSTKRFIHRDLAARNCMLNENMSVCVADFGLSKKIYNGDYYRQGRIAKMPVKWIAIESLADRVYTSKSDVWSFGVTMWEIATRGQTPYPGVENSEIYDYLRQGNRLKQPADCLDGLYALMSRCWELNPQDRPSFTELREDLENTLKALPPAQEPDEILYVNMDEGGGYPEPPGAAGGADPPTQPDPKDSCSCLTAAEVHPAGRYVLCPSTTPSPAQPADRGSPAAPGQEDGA
- protocol.text: Axl binding assay
measured.parameter: IC50

// below: answered compounds
{"columns": ["compound", "assay.value"],
 "data": [
  ["COc1cc2nccc(Oc3ccc(N)cc3)c2cc1OC", "> 10000 nM"],
  ["COc1cc2nccc(Oc3ccc(NC(=O)c4csc(-c5ccccc5)n4)cc3F)c2cc1OC [Example 10]", "500 to 5000 nM"]
]}

Now, please, on to the next compound.
Given the entry COc1cc2c(Oc3ccc(NC(=O)c4csc(-c5ccccc5)n4)cc3F)ccnc2cc1OCCCN1CCNCC1 [Example 72] , what IC50 was observed with Axl (Homo sapiens (Human), UniProt P30530)?
< 500 nM

----------
Measured IC50, listed per entry.
- system.under.test: Axl (Homo sapiens (Human))
- protocol.text: Axl binding assay

Answered examples (3):
{"columns": ["molecule", "measured.parameter", "assay.value"],
 "data": [
  ["CCOc1cn(-c2ccc(F)cc2)nc1C(=O)Nc1ccc(Oc2ccnc3cc(OCCCN)c(OC)cc23)c(F)c1 [Example 54]", "IC50", "< 500 nM"],
  ["COCCOc1cn(-c2ccc(F)cc2)nc1C(=O)Nc1ccc(Oc2ccnc3cc(OCCCN4CCNCC4)c(OC)cc23)c(F)c1 [Example 70]", "IC50", "< 500 nM"],
  ["CCOc1cn(-c2ccc(F)cc2)nc1C(=O)Nc1ccc(Oc2ccnc3cc(OC)c(OC)cc23)c(Cl)c1 [Example 32]", "IC50", "< 500 nM"]
]}

What does the data say about its IC50? Entry: CCOc1cn(-c2ccc(N)cc2)nc1C(=O)Nc1ccc(Oc2ccnc3cc(OC)c(OC)cc23)cn1 [Example 99]
< 500 nM

What value of IC50 has been reported for the following molecule? COc1cc2c(Oc3ccc(NC(=O)c4nn(-c5ccc(F)cc5)cc4OC)cc3F)ccnc2cc1OCCCN1CCNCC1 [Example 66]
< 500 nM

# get_value(readout='IC50', item= COc1cc2c(Oc3ccc(NC(=O)c4nn(-c5ccc(F)cc5)cc4OCC4CC4)cc3F)ccnc2cc1OCCCN1CCOCC1 [Example 46] )
< 500 nM

Give its IC50 value. Item: COc1cc2nccc(Oc3ccc(N)c(C)c3)c2cc1OC
> 10000 nM

# IC50 lookup, item COc1cc2c(Oc3ccc(NC(=O)c4cc(C)n(C)n4)cc3F)ccnc2cc1OCCCN1CCOCC1 [Example 42]
< 500 nM

Would you mind telling me what IC50 value was observed for COc1cc2nccc(Oc3ccc(NC(=O)c4cc(C)n(C)n4)cc3F)c2cc1OC [Example 1] ?
500 to 5000 nM

Using the record for COc1cc2nccc(Oc3ccc(N)cc3C)c2cc1OC , report its IC50.
> 10000 nM

Query (molecule): CCOc1cn(-c2ccc(F)cc2)nc1C(=O)Nc1ccc(Oc2ccnc3cc(OC)c(OC)cc23)cc1 [Example 24] ; field requested: IC50
< 500 nM

Please report the recorded IC50 for COc1cc2c(Oc3ccc(NC(=O)c4nc(-c5ccccc5)cs4)nc3)ccnc2cc1OCC1CCNCC1 [Example 101] .
< 500 nM

Any idea what IC50 was measured for CCOc1cn(-c2ccc(F)cc2C)nc1C(=O)Nc1ccc(Oc2ccnc3cc(OC)c(OC)cc23)cc1C [Example 95] ?
< 500 nM

I'd like to know its IC50. The molecule in question is CCOc1cn(-c2cccc([N+](=O)[O-])c2)nc1C(=O)Nc1ccc(Oc2ccnc3cc(OC)c(OC)cc23)c(F)c1 [Example 90]
< 500 nM

Requested read-out: IC50. Entry: CCOc1cn(-c2ccc(F)cc2)nc1C(=O)Nc1ccc(Oc2ccnc3cc(OC)c(OC)cc23)c(C)c1 [Example 28]
< 500 nM

What IC50 value was documented for this molecule, CCOc1cn(-c2ccc(F)c(OC)c2)nc1C(=O)Nc1ccc(Oc2ccnc3cc(OC)c(OC)cc23)c(F)c1 [Example 96] ?
< 500 nM

// returns reported IC50 for input COc1cc2nccc(Oc3ccc(NC(=O)c4nn(-c5ccc(F)cc5)cc4OCCN(C)C)cc3F)c2cc1OC [Example 19]
< 500 nM

Which IC50 is listed for COc1cc2nccc(Oc3ccc(NC(=O)c4nn(-c5ccc(F)cc5)cc4OC(C)C)cc3)c2cc1OC [Example 25] ?
< 500 nM

Consider the molecule shown here: COc1cc2nccc(Oc3ccc(NC(=O)c4ccn(C)n4)cc3F)c2cc1OC [Example 4] What is its recorded IC50?
500 to 5000 nM

Any idea what its IC50 is? The molecule is COCCOc1cn(-c2ccc(F)cc2)nc1C(=O)Nc1ccc(Oc2ccnc3cc(OCCCN4CCOCC4)c(OC)cc23)c(F)c1 [Example 50]
< 500 nM
